assay: inhibitors of TNFa-induced NFkB p65 translocation, primary screen, imaging, HUVEC, MLSMR starter and 10KST1 sets (AID 438); settings: HUVEC TNFa-induced p65 nuclear translocation; measured here: nuclei count (cytotoxicity indicator), at 2.08 µM;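 note: compound added about 3h40 before a 20 min TNFalpha stimulation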
Kindly return label 1 if reported cell count is no lower than 400; return label 0 if it is lower.

> print(dat)
                                   compound  category
1  CCOC(=O)c1ccc(N(CC(=O)NC2CCCC2)C(=O)CNC(=O)c2ccco2)cc1   label 1
2  CCOC(=O)N1CCN(C(=O)c2ccc3nc4ccsc4c(=O)n3c2)CC1   label 1
3           CCc1nc2scc(-c3ccccc3)c2c(=O)n1N   label 1

Ask: Tell me whether cell count is at least 400 here: `COc1ccc(-n2c(SCC(=O)c3c(N)n(C)c(=O)n(C)c3=O)nc3ccccc32)cc1`
Reply: label 1

Ask: Please indicate if the recorded cell count for CC(O)CN1C(=O)C(CC(=O)Nc2ccc(Cl)cc2)SC1=Nc1ccccc1 (configuration not stated) meets or exceeds 400.
Reply: label 1

Ask: Determine whether measured cell count meets or exceeds 400 for Cc1ccc2c(c1)NC(=O)C(CC(=O)NCCN(CC(C)C)CC(C)C)O2 (configuration not stated)
Reply: label 1

Ask: Evaluate O=C(Nc1ccccc1C(=O)N1CCOCC1)C1CCC(=O)N1C1CCCC1 (configuration not stated) : cell count at minimum 400?
Reply: label 0

Ask: Hi, just wondering whether `Cc1ccc(N2CCN(CCc3nc4cc(NS(C)(=O)=O)ccc4n3C)CC2)cc1` shows cell count of 400 or higher.
Reply: label 0

Ask: Check if cell count >= 400 (inclusive). Item: `CS(=O)(=O)N1CCc2cc(S(=O)(=O)Nc3ccc4oc5c(c4c3)CCCC5)ccc21`
Reply: label 1

Ask: Record Cc1cccc(N2CCN(C(=O)C3CCCN(S(=O)(=O)c4c(C)noc4C)C3)CC2)c1C (configuration not stated) ; criterion: cell count no lower than 400. Met?
Reply: label 1
